Listed next: entries and their corresponding composite z-score.
biological target: Calmodulin-1 (Homo sapiens); assay: calcium-bound CALM1 binders on microarrays, profiling panel, artefact control for SMM control-protein annotation, biochemical, small-molecule microarray, Cy5-labelled CALM1, plus calcium (AID 1112); settings: Cy5-CALM1 binding fluorescence, higher = more signal;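 note: score merges spot fluorescence with signal to noise from triplicate slides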

molecule	composite z-score
COc1ccc(C(O)C2C=CC3C(=O)N(C)C(=O)C3N2N2CCCCC2)cc1OCc1ccccc1 (stereo not given)	0.738
O=C/C=C/c1ccc(/C=C/c2ccccc2)cc1	-0.584
CCCC[C@@H]1C[C@H]1[C@@H](NC(=O)c1ccccc1)c1ccccc1C(F)(F)F	1.09
C=CCc1cccc([C@@H]2[C@@H](C)CC[C@H]3C(=O)N4[C@H](c5cccc(CC=C)c5)[C@@H](C)CC[C@H]4C(=O)N23)c1	-0.831
COCCCNC(=O)[C@@H]1c2ccccc2C(=O)N(CC23CC4CC(CC(C4)C2)C3)[C@H]1c1ccc(CO)cc1	0.803
C=C[C@H](OC)[C@@H](OC(=O)Nc1ccc(SC)cc1)c1ccc(OC)c(O)c1	0.319
O=C1C2C=CC(C(O)C(c3ccccc3)c3ccccc3)N(Nc3ccc([N+](=O)[O-])cc3)C2C(=O)N1c1ccccc1 (stereo not given)	0.808
CC(C)N1CC=CC23O[C@@H]4/C=C\CCCOC(=O)C4[C@H]2C(=O)N(CCCCCO)[C@@H]3C1=O (stereo not given in full)	-0.226
CC(C)[Si]1(C(C)C)O[C@@H](c2ccccc2)c2cc(C3CC3)nc(-c3ccc(Oc4ccccc4)cc3)c21	0.89
CO[C@H]1COC(=O)CC=C[C@H](C)COC(=O)[C@@H](OCc2ccccc2)C=C[C@@H]1C	-2.68
C=C(COC)/C(=C/C[C@H](OC(C)=O)c1ccc(OCCO)cc1)c1cnc2ccccc2c1	0.214
CC(C)[Si](OCCCNS(=O)(=O)c1ccc(Br)cc1)(C(C)C)C(C)C	-0.371
COc1ccc([Si](C)(C)[C@H]2[C@H](CCO)O[C@@]3(C(=O)N(Cc4ccc(N5CCCCC5=O)cc4)c4ccccc43)[C@@H]2C)cc1	1.02
C[N+](C)(C)CCCCNC(=O)[C@H]1C[C@H]2C(=O)NCC(=O)N2[C@H]1c1cccc(OCCO)c1	-1.96
COCCOC(=O)N1C(=O)[C@@]2(c3cc(C#CCNC(N)=O)ccc31)[C@H](c1ccccc1OCCO)N1[C@H](c3ccccc3)[C@H](c3ccccc3)OC(=O)[C@H]1[C@@H]2C(=O)NC[C@H](O)c1ccccc1	0.527
CO[C@@H]1COC(=O)[C@H](C)NC(=O)CC=C[C@@H](C)[C@H](OC)COC(=O)[C@H](C)NC(=O)CC=C[C@H]1C	-1.26
[N-]=[N+]=NCc1ccccc1C[C@]1(C(N)=O)N=C(c2ccc(OCCCO)cc2)O[C@H]1c1ccccc1CN=[N+]=[N-]	1.12
CC(=O)NCCCC[C@@H]1NC(=O)[C@@H]2C[C@H](C(=O)NCc3ccc(F)cc3)[C@H](c3cccc(OCCO)c3)N2C1=O	0.0377
O=C1NC(=O)C2C1C=CC(C(O)C=Cc1ccc([N+](=O)[O-])cc1)N2Nc1ccccn1 (stereo not given)	-0.544
CN1C(=O)C2C=CC(C(O)c3ccc(N(C)C)cc3)N(Nc3ccc([N+](=O)[O-])cc3[N+](=O)[O-])C2C1=O (stereo not given)	0.697
COC(=O)C1=C(C)N(Cc2ccccc2)c2c(C(=O)OC)c(C(=O)OC)c(C(=O)OC)c(=O)n2[C@@H]1c1ccccc1	0.141
COC(=O)[C@H]1[C@@H]2COc3ccccc3[C@H]2N[C@H]1C(=O)OC	-0.266
C=C(CCCC)/C(=C/C[C@H](OC(=O)c1ccncc1)c1cccc(OCCO)c1)c1cc(C(=O)OC)ccc1OC	-0.784
C=CCC(OC(C)=O)[C@@H]1[C@@H](N(Cc2cccc3ccccc23)C(=O)c2ccc(C)cc2)c2cc(OCCCO)ccc2N1C(=O)c1ccc(-c2ccccc2)cc1 (stereo not given in full)	-0.065
CO[C@H]1O[C@H](CO)[C@@H](OC(=O)Nc2ccc(Oc3ccccc3)cc2)[C@H](OC(=O)Nc2ccccc2-c2ccccc2)[C@H]1OC(=O)Nc1ccccc1-c1ccccc1	-0.107
O=C1O[C@@H](c2ccccc2)[C@@H](c2ccccc2)N2[C@@H](c3ccccc3OCCO)[C@]3(C(=O)Nc4ccc(C#CC5=CCCCC5)cc43)[C@@H](C(=O)O)[C@H]12	0.957
CCCC[C@@H]1C[C@H]1[C@@H](NC(=O)c1cccs1)c1ccc(Cl)cc1	0.696
COC(=O)C[C@H]1O[C@]2(C(=O)N(C)c3ccccc32)[C@@H](C)[C@@H]1[Si](C)(C)c1ccc(OC)cc1	-0.327
CC[C@@H]1C=C(C(=O)O)[C@H](c2ccccc2)N1S(=O)(=O)c1ccc([N+](=O)[O-])cc1	0.202
C=CCC(OC(C)=O)[C@@H]1[C@@H](N(Cc2ccc(-c3ccccc3)cc2)C(=O)c2ccc(-c3ccccc3)cc2)c2cc(OCCCO)ccc2N1C(=O)Cc1ccc(OC)cc1 (stereo not given in full)	0.229
